Catalogue of compounds with associated IC50
Target: CaV2.2 (Homo sapiens, UniProt Q00975)
Construct: expressed in transfected cells; host or cells: HEK293
Sequence (Q00975 whole entry): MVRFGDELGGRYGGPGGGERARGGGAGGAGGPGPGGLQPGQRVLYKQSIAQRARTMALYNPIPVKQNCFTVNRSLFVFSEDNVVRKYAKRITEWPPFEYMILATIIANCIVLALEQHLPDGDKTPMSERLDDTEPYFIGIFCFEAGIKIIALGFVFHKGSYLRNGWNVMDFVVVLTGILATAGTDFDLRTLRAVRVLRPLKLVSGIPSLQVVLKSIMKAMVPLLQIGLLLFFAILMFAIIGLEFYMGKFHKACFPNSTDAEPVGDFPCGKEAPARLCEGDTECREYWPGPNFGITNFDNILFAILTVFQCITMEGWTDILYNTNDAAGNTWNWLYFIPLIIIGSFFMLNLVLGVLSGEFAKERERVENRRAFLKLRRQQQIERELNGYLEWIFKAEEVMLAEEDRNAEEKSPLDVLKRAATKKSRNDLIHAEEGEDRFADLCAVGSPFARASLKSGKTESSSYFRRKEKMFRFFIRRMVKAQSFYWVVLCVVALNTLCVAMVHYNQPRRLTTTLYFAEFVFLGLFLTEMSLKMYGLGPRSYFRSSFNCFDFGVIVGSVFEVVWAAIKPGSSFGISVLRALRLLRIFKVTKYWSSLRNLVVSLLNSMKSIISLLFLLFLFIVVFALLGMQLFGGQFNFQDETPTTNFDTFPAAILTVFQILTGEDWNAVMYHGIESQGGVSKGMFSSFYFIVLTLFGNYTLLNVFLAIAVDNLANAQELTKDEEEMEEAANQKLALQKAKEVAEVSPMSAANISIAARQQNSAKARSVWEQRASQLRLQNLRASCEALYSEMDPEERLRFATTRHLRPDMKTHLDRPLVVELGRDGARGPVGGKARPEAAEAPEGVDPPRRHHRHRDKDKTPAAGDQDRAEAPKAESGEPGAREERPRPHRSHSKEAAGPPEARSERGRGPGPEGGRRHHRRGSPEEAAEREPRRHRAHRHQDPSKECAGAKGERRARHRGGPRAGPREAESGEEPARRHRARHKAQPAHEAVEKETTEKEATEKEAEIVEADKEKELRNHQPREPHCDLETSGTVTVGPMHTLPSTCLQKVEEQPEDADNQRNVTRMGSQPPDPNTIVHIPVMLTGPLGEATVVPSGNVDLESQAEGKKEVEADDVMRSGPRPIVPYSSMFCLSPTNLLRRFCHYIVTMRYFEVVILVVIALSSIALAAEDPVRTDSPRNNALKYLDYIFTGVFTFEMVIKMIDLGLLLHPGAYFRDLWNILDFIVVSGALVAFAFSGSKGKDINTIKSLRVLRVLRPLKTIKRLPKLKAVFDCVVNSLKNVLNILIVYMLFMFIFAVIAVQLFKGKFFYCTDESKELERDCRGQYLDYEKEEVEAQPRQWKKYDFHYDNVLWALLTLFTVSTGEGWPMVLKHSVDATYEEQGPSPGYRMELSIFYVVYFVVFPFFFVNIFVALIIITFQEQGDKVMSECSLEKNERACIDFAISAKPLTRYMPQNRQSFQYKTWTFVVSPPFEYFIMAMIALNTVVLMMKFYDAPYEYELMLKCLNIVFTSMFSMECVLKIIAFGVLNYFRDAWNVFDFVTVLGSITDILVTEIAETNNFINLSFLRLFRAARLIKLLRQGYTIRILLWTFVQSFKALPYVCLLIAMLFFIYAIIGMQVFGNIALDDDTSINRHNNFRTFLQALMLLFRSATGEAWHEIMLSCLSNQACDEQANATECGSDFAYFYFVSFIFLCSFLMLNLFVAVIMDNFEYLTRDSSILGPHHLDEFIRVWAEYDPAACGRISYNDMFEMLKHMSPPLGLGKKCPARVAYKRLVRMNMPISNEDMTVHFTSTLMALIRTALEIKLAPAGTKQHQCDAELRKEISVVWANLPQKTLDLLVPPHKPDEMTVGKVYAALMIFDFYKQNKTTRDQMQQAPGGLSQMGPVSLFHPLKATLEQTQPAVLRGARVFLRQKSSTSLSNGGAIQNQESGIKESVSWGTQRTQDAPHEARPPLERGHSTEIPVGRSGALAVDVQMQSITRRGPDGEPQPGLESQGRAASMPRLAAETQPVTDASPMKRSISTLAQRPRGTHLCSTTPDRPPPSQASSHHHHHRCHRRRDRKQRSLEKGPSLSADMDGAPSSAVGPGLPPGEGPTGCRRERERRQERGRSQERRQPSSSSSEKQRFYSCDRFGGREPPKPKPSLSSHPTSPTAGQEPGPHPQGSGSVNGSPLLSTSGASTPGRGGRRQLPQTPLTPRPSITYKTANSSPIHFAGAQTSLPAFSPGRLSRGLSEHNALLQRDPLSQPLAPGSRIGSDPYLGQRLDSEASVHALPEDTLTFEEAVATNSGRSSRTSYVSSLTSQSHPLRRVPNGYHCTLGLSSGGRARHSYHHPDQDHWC
Sequence (P54284 whole entry partner): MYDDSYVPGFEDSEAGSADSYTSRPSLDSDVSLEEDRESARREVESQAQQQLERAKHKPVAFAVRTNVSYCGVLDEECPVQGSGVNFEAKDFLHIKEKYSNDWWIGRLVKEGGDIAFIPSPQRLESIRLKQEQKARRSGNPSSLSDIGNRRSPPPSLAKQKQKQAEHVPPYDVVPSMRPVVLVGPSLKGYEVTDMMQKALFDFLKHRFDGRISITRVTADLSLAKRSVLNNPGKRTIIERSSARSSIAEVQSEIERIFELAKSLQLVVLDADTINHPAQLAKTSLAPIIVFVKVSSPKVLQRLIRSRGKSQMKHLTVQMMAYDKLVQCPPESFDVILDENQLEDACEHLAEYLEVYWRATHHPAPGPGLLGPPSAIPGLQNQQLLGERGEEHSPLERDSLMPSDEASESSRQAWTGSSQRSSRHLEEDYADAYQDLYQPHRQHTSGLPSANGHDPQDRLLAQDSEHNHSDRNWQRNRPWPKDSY
Sequence (P54289 25-946 partner limits assumed): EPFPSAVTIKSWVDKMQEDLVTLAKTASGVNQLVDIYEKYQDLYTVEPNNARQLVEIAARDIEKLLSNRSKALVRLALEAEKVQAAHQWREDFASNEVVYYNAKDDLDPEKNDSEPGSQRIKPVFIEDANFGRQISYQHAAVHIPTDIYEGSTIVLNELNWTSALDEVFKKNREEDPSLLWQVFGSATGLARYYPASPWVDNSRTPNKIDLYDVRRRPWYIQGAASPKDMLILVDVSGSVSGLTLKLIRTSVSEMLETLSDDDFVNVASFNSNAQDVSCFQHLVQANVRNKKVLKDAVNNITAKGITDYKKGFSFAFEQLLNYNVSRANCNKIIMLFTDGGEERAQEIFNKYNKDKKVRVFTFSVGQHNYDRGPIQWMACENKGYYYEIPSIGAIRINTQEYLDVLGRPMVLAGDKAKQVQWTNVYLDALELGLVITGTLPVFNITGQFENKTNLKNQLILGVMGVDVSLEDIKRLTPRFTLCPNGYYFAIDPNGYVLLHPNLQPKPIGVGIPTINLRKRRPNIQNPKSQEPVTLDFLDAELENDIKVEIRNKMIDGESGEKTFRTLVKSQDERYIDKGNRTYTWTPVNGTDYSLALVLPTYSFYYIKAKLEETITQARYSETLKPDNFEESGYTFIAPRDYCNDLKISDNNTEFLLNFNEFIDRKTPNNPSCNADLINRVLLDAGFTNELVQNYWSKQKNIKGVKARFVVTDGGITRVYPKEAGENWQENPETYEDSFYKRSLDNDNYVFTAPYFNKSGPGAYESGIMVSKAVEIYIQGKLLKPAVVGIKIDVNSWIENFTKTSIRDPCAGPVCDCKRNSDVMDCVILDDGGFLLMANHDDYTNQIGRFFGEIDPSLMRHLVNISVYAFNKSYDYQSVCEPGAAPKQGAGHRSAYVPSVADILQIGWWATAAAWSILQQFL
Sequence (P54289 947-1103 partner limits assumed): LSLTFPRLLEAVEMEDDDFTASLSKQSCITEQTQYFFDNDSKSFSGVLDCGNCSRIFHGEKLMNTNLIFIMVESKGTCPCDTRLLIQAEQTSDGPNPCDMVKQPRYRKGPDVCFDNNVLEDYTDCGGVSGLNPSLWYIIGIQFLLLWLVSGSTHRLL
Assay: VIPR optical membrane potential assay with electrical stimulation
Format: cell-based
Conditions: Table 3, biological assay data; read-out: IC50

Worked set:
[[record]]
compound = "CC1CCN(S(=O)(=O)c2ccc3oc(C(=O)N4CCCC(C)C4)cc3c2)CC1 (stereo not drawn) [compound 417]"
property = "IC50"
measured_value = "5 to 20 µM"

[[record]]
compound = "Cc1c(C(=O)NCc2ccccc2)oc2ccc(S(=O)(=O)N3CCOCC3)cc12 [compound 267]"
property = "IC50"
measured_value = "< 20 µM"

[[record]]
compound = "Cc1c(C(=O)N2CCCCC2C)oc2ccc(S(=O)(=O)N3CCC(C)CC3)cc12 (stereo not drawn) [compound 42]"
property = "IC50"
measured_value = "< 5 µM"

[[record]]
compound = "Cc1c(C(=O)NCCCc2ccccc2)[nH]c2ccc(S(=O)(=O)N3CCC(C)CC3)cc12 [compound 223]"
property = "IC50"
measured_value = "< 5 µM"

[[record]]
compound = "CCCCN(C)C(=O)c1oc2ccc(S(=O)(=O)N3CCC(C)CC3)cc2c1C [compound 325]"
property = "IC50"
measured_value = "< 5 µM"


q: For the compound CC1CCN(S(=O)(=O)c2ccc3[nH]c(C(=O)N(C(C)C)C(C)C)cc3c2)CC1 [compound 140] , report IC50.
a: < 5 µM

q: For the compound CCCN(CC1CC1)C(=O)c1cc2cc(S(=O)(=O)N3CC(C)CC(C)C3)ccc2[nH]1 (stereo not drawn) [compound 254] , report IC50.
a: < 5 µM

q: For the compound CC1CCN(S(=O)(=O)c2ccc3oc(C(=O)N(C)Cc4ccccc4)cc3c2)CC1 [compound 433] , report IC50.
a: < 5 µM

q: For the compound CCNC(=O)c1oc2ccc(S(=O)(=O)N(CC)CC)cc2c1C [compound 444] , report IC50.
a: < 20 µM

----------
Biological target: CaV2.2 (Homo sapiens, UniProt Q00975)
Construct: expressed in transfected cells; host or cells: HEK293
Assay: VIPR optical membrane potential assay with electrical stimulation
Type: cell-based
Conditions: Table 3, biological assay data; read-out: IC50
pIC50: −log10 of the molar value.
Property: pIC50

[[record]]
molecule = "Cc1c(C(=O)NCC2CCOCC2)oc2ccc(S(=O)(=O)N3CC(C)CC(C)C3)cc12 (stereo not shown) [compound 242]"
assayed_system = "CaV2.2 (Homo sapiens, UniProt Q00975)"
property = "pIC50"
measured_value = "> 5.30"

[[record]]
molecule = "Cc1c(C(=O)NCC2CCCO2)[nH]c2ccc(S(=O)(=O)N3CC(C)CC(C)C3)cc12 (stereo not shown) [compound 281]"
assayed_system = "CaV2.2 (Homo sapiens, UniProt Q00975)"
property = "pIC50"
measured_value = "> 5.30"

[[record]]
molecule = "Cc1c(C(=O)N(C)Cc2ccccc2)oc2ccc(S(=O)(=O)N3CCOCC3)cc12 [compound 360]"
assayed_system = "CaV2.2 (Homo sapiens, UniProt Q00975)"
property = "pIC50"
measured_value = "4.70 to 5.30"

[[record]]
molecule = "CC1CC(C)CN(S(=O)(=O)c2ccc3[nH]c(C(=O)NC4CCCCC4)cc3c2)C1 (stereo not shown) [compound 329]"
assayed_system = "CaV2.2 (Homo sapiens, UniProt Q00975)"
property = "pIC50"
measured_value = "4.70 to 5.30"

[[record]]
molecule = "CC1CCN(C(=O)c2cc3cc(S(=O)(=O)N4CCCCCC4)ccc3[nH]2)CC1 [compound 364]"
assayed_system = "CaV2.2 (Homo sapiens, UniProt Q00975)"
property = "pIC50"
measured_value = "4.70 to 5.30"

[[record]]
molecule = "O=C(c1cc2cc(S(=O)(=O)N3CCCCCC3)ccc2[nH]1)N1CCCC1 [compound 272]"
assayed_system = "CaV2.2 (Homo sapiens, UniProt Q00975)"
property = "pIC50"
measured_value = "> 4.70"

[[record]]
molecule = "CN(c1ccc2[nH]c(C(=O)NC3CC3)cc2c1)S(=O)(=O)c1ccccc1 [compound 312]"
assayed_system = "CaV2.2 (Homo sapiens, UniProt Q00975)"
property = "pIC50"
measured_value = "4.70 to 5.30"

[[record]]
molecule = "Cc1c(C(=O)NCCC2CCOCC2)oc2ccc(S(=O)(=O)N3CCCC(C)C3)cc12 (stereo not shown) [compound 467]"
assayed_system = "CaV2.2 (Homo sapiens, UniProt Q00975)"
property = "pIC50"
measured_value = "> 5.30"

[[record]]
molecule = "CCN(CC)C(=O)c1cc2cc(S(=O)(=O)N3CCCCCC3)ccc2[nH]1 [compound 46]"
assayed_system = "CaV2.2 (Homo sapiens, UniProt Q00975)"
property = "pIC50"
measured_value = "> 5.30"

[[record]]
molecule = "CNC(=O)c1cc2cc(S(=O)(=O)N3CCC(C)CC3)ccc2[nH]1 [compound 192]"
assayed_system = "CaV2.2 (Homo sapiens, UniProt Q00975)"
property = "pIC50"
measured_value = "> 5.30"


q: Would you please give the reported pIC50 of CC1CCN(S(=O)(=O)c2ccc3oc(C(=O)NCCc4ccccc4)cc3c2)CC1 [compound 97] with CaV2.2 (Homo sapiens, UniProt Q00975)?
a: 4.70 to 5.30

q: Would you please give the reported pIC50 of Cc1c(C(=O)N2CCCC(C)C2)oc2ccc(S(=O)(=O)N3CCC(C)CC3)cc12 (stereo not shown) [compound 58] with CaV2.2 (Homo sapiens, UniProt Q00975)?
a: 4.70 to 5.30

q: Would you please give the reported pIC50 of Cc1c(C(=O)NCCCc2ccccc2)oc2ccc(S(=O)(=O)N3CCCC(C)C3)cc12 (stereo not shown) [compound 401] with CaV2.2 (Homo sapiens, UniProt Q00975)?
a: > 5.30

q: Would you please give the reported pIC50 of CCN(CC)S(=O)(=O)c1ccc2oc(C(=O)N3CC(C)CC(C)C3)c(C)c2c1 (stereo not shown) [compound 164] with CaV2.2 (Homo sapiens, UniProt Q00975)?
a: > 5.30

q: Would you please give the reported pIC50 of Cc1c(C(=O)NC2CCCC2)[nH]c2ccc(S(=O)(=O)N3CCC(C)CC3)cc12 [compound 146] with CaV2.2 (Homo sapiens, UniProt Q00975)?
a: > 5.30

q: Would you please give the reported pIC50 of Cc1c(C(=O)NCCc2ccccc2)oc2ccc(S(=O)(=O)N3CCC4(CC3)OCCO4)cc12 [compound 136] with CaV2.2 (Homo sapiens, UniProt Q00975)?
a: 4.70 to 5.30

q: Would you please give the reported pIC50 of Cc1c(C(N)=O)oc2ccc(S(=O)(=O)N3CCC(C)CC3)cc12 [compound 431] with CaV2.2 (Homo sapiens, UniProt Q00975)?
a: 4.70 to 5.30

q: Would you please give the reported pIC50 of CC1CCN(S(=O)(=O)c2ccc3[nH]cc(C(N)=O)c3c2)CC1 [compound 306] with CaV2.2 (Homo sapiens, UniProt Q00975)?
a: > 4.70

q: Would you please give the reported pIC50 of Cc1c(C(=O)NC2CCC(C)CC2)oc2ccc(S(=O)(=O)N3CCOCC3)cc12 (stereo not shown) [compound 39] with CaV2.2 (Homo sapiens, UniProt Q00975)?
a: > 4.70

q: Would you please give the reported pIC50 of CC1CC(C)CN(S(=O)(=O)c2ccc3oc(C(=O)N4CCCCC4)cc3c2)C1 (stereo not shown) [compound 100] with CaV2.2 (Homo sapiens, UniProt Q00975)?
a: > 5.30

q: Would you please give the reported pIC50 of Cc1c(C(=O)NC2CCCCC2)[nH]c2ccc(S(=O)(=O)N3CCCCCC3)cc12 [compound 309] with CaV2.2 (Homo sapiens, UniProt Q00975)?
a: > 5.30

q: Would you please give the reported pIC50 of CCOC(=O)N1CCN(C(=O)c2oc3ccc(S(=O)(=O)N(CC)CC)cc3c2C)CC1 [compound 328] with CaV2.2 (Homo sapiens, UniProt Q00975)?
a: > 4.70
